test: recombinant UMI read abundance after kanamycin selection (control-corrected) (log10(CPM+1)); higher = more efficient recombination; extreme values may be limits of the assay; sequences stand for … in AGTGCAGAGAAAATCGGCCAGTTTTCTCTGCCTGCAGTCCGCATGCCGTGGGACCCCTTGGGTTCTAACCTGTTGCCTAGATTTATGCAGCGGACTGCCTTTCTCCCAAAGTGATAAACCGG…AGGTTGGTTTCACT; site = the 11-nt donor;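 also: IS621 bridge recombinase in Escherichia coli cells against a fixed T5 target plasmid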
Class 1: recombinant UMI read abundance (log10) at least 0.01. Class 0: recombinant UMI read abundance (log10) below 0.01.

Prompt: Could you please find out whether ACACGAACATGGACCGGTTTTCCCGGTAATCCGTATTTGTA (site ACACGAACTAA) has recombinant UMI read abundance (log10) that meets 0.01 or exceeds it?
Completion: 1

Prompt: Repeat with TTGTCACCATGGACCGGTTTTCCCGGTAATCCGTATTTGTG (site TTGTCACCTCA)
Completion: 1

Prompt: Repeat with CTCCTAACATGGACCGGTTTTCCCGGTAATCCGTATTTGGA (site CTCCTAACTTC)
Completion: 1

Prompt: Repeat with GCGACAACATGGACCGGTTTTCCCGGTAATCCGTATTTGCT (site GCGAAAACTAG)
Completion: 0

Prompt: Repeat with CCCCACGCATGGACCGGTTTTCCCGGTAATCCGTATTTGTA (site CCCCACCCTTA)
Completion: 0
